Reported Kd values follow for various compounds
Protein target, amino acids: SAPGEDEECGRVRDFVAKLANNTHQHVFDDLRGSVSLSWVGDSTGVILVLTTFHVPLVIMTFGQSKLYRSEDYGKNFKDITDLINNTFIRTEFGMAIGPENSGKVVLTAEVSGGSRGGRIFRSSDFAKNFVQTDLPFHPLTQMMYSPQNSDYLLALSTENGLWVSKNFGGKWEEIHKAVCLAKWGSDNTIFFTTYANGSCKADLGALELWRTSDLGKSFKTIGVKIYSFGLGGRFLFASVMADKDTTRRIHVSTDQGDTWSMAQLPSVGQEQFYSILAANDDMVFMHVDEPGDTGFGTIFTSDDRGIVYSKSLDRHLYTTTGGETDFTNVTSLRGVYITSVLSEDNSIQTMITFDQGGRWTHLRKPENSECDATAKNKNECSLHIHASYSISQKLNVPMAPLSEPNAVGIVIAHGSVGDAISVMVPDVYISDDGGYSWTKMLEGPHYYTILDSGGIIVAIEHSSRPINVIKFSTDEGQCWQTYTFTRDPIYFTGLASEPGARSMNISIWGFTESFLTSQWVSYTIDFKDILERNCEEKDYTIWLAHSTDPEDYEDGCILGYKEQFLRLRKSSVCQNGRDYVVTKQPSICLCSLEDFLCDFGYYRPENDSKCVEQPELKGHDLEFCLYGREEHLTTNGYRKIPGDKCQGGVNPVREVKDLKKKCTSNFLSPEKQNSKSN
READOUT LABEL: Kd (µM)

[[record]]
compound_smiles = "CN1CCC[C@H]1C(=O)Nc1cccc(NC(=O)CCc2ccccc2)c1"
readout_value = 0.118

[[record]]
compound_smiles = "C[C@@H](NC(=O)c1ccccc1NCC(=O)O)c1ccccc1"
readout_value = 6.9

[[record]]
compound_smiles = "CCCCCCCC(=O)OC[C@H](COP(=O)(O)O[C@H]1[C@H](O)[C@@H](OP(=O)(O)O)[C@H](OP(=O)(O)O)[C@@H](OP(=O)(O)O)[C@H]1O)OC(=O)CCCCCCC"
readout_value = 4.2

